- TARGET_ENTITY: HLA-B*44:03
- EXPERIMENTAL_PROTOCOL: IEDB peptide-MHC binding, purified MHC/competitive/radioactivity; filed as Kd, often an IC50 or EC50 that approximates it; bounds were set here for any values at or beyond the usual limits of such assays
- ASSAY_CONDITIONS: source organism: Dengue virus 1 Brazil/97-11/1997
MEASUREMENT_LABEL: pKd
Just the number, please; pKd means minus log10 of the concentration in mol/L.

Task: Look up pKd with HLA-B*44:03 for this sequence: RELKCGSGIF
Result: 6.82

====

- TARGET_ENTITY: HLA-B*08:02
- EXPERIMENTAL_PROTOCOL: IEDB peptide-MHC binding, purified MHC/direct/fluorescence; filed as Kd, often an IC50 or EC50 that approximates it; bounds were set here for any values at or beyond the usual limits of such assays
- ASSAY_CONDITIONS: source organism: Influenza A virus(A/swine/Shandong/fNY/2003(H9N2))
MEASUREMENT_LABEL: Kd

Task: // returns reported Kd for input EEFTMVGRR
Result: ≥ 20 µM

====

- TARGET_ENTITY: HLA-B*15:17
- EXPERIMENTAL_PROTOCOL: IEDB peptide-MHC binding, purified MHC/competitive/fluorescence; filed as Kd, often an IC50 or EC50 that approximates it; bounds were set here for any values at or beyond the usual limits of such assays
- ASSAY_CONDITIONS: source organism: Zaire ebolavirus
// reported Kd per item

Answered cases to consult:
AKATGRYNL
≥ 20 µM
DEMVCKWLL
≥ 20 µM
GLIQYPTAW
≥ 20 µM

Shift focus to the following entry.
Task: What measured Kd is associated with EWAENCYNL on HLA-B*15:17?
Result: ≥ 20 µM

====

- TARGET_ENTITY: HLA-B*07:02
- EXPERIMENTAL_PROTOCOL: IEDB peptide-MHC binding, purified MHC/competitive/radioactivity; filed as Kd, often an IC50 or EC50 that approximates it; bounds were set here for any values at or beyond the usual limits of such assays
- ASSAY_CONDITIONS: source organism: Vaccinia virus WR
Consider the following sequences and their measured pKd readings.
// scale note: pKd = -log10(conc_M); give the bare number

Please review the entries below; each comes with its answer.
GPMPYMISTY
6.05
CPASKKESVI
8.15
IPSLFIESSI
6.17
VPLPCQLMYA
5.13

Then there is this sequence:
Task: Can you share its pKd? I mean this sequence: LPTLFGRGV
Result: 8.08

====

- TARGET_ENTITY: HLA-A*26:01
- EXPERIMENTAL_PROTOCOL: IEDB peptide-MHC binding, purified MHC/direct/fluorescence; filed as Kd, often an IC50 or EC50 that approximates it; bounds were set here for any values at or beyond the usual limits of such assays
- ASSAY_CONDITIONS: source organism: Influenza A virus (A/chicken/Beijing/nl/2002(H9N2))
MEASUREMENT_LABEL: Kd (nM)
Please respond with the number in nM and leave the unit unwritten.

Task: Give the measured Kd of TTVDHMAII .
Result: 67.8

====

- TARGET_ENTITY: HLA-A*24:03
- EXPERIMENTAL_PROTOCOL: IEDB peptide-MHC binding, purified MHC/direct/fluorescence; filed as Kd, often an IC50 or EC50 that approximates it; bounds were set here for any values at or beyond the usual limits of such assays
- ASSAY_CONDITIONS: source organism: Escherichia coli O157:H7
MEASUREMENT_LABEL: Kd

Task: Give the measured Kd of LPEFERRTL .
Result: ≥ 20 µM
